Ref: paper PMC5352051

Target: Plk3 PBD (Homo sapiens)
Construct: (326-603 aa), Plk2 (355-685 aa), and Plk3 (335-646 aa); GST (N); made in house; host or cells: E. coli Rosetta BL21(DE3)
Sequence (Q9H4B4 335-646): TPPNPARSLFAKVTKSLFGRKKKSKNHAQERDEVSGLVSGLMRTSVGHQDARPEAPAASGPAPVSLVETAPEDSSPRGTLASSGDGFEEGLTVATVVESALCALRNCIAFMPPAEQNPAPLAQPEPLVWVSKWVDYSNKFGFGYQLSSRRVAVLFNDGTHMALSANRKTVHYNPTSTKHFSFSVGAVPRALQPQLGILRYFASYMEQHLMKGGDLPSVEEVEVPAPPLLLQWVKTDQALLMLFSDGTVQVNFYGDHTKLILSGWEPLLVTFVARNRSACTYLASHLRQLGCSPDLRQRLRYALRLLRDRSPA
Assay: Fluorescence polarization assay, Plk3 PBD / FITC-labeled phosphopeptide
Type: binding
Settings: Plk3 PBD, FP assay, 1 hr preincubation at RT; read-out: Apparent IC50
RECORDED METRIC: IC50

For the compound shown here, CCS(=O)(=O)c1oc(-c2ccc(F)cc2)nc1S(=O)(=O)c1ccccc1 [T521] , give the reported IC50.
> 500 µM

----------
Test system: HCT-116
Assay: MTT assay
Type: cell-based
Conditions: Homo sapiens; HCT-116, Colon, tumor; read-out: IC50 proliferation
RECORDED METRIC: pIC50
One number for each entry, as −log10 of the molar value.

For the compound shown here, CCS(=O)(=O)c1oc(-c2ccc(F)cc2)nc1S(=O)(=O)c1ccccc1 [T521] , give the reported pIC50.
5.45
